# IC50 listing for each entry below
SYSTEM: recombinant human GBA (beta-glucocerebrosidase) (Homo sapiens, UniProt P04062)
Sequence (P04062 40-536): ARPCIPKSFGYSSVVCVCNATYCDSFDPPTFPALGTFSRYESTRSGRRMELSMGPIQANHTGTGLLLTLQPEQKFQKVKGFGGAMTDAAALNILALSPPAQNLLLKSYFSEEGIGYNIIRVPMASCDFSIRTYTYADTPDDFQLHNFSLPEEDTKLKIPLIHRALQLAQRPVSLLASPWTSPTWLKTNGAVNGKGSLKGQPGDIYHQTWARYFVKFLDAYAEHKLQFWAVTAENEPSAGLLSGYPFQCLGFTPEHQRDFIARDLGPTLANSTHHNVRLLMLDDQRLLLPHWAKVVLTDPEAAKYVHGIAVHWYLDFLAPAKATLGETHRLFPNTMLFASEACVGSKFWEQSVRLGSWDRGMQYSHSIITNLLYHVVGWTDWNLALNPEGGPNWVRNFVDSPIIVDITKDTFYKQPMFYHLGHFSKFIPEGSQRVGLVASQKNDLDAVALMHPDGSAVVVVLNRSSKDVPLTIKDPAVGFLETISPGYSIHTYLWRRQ
ASSAY REMARKS: Beta-glucocerebrosidase (GBA, glucosylceramidase) assay (4-methylumbelliferyl-beta-D-pyranoside substrate, fluorescence)
Give the value, in units of µM, as a plain number.

Illustrative cases are given below, each with its answer.
# SMI, VALUE REPORTED
rows = [
    ("[N-]=[N+]=Nc1ccc(NCCc2cccc(CCN3C[C@H](O)[C@@H](O)[C@H](O)[C@H]3CO)c2)c([N+](=O)[O-])c1", 0.496),
    ("[N-]=[N+]=Nc1ccc(NCCc2cnn(CCN3C[C@H](O)[C@@H](O)[C@H](O)[C@H]3CO)c2)c([N+](=O)[O-])c1", 28.6),
    ("[N-]=[N+]=Nc1ccc(NCc2ccc(-c3ccc(CN4C[C@H](O)[C@@H](O)[C@H](O)[C@H]4CO)cc3)cc2)c([N+](=O)[O-])c1", 5.63),
]

Lab book: IC50 of O=S(=O)(Nc1cc(NCCCCCCN2C[C@H](O)[C@@H](O)[C@H](O)[C@H]2CO)cc(-c2ncccn2)c1)C1CC1 noted as 5.14

For reference, reported IC50 for CC(C)c1cc(CCNc2ccc(N=[N+]=[N-])cc2[N+](=O)[O-])cc(CCN2C[C@H](O)[C@@H](O)[C@H](O)[C@H]2CO)c1 stands at 0.379

Per the records, this molecule ( COc1cc(NCCc2ccc(CCN3C[C@H](O)[C@@H](O)[C@H](O)[C@H]3CO)cc2)cc(-c2ccco2)c1 ) has IC50 equal to 1.09
